- Target entity: Q98K
- Protocol text: SPR; 25 C
Measured Kd accompanies every entry in the list below.
Reported endpoint: Kd (nM)

binder="Activin A (ligand) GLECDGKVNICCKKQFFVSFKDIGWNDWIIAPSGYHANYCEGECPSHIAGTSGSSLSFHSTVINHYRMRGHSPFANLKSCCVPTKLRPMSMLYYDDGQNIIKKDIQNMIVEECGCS" observed_value=0.145
binder="BMP10 (ligand) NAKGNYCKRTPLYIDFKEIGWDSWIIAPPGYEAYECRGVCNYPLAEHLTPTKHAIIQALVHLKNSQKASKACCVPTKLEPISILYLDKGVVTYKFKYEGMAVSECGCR" observed_value=0.068
binder="BMP9 (ligand) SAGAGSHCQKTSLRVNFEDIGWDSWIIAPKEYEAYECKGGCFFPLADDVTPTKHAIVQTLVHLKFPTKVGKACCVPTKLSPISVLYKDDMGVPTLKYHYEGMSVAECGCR" observed_value=0.069
binder="GDF11 (ligand) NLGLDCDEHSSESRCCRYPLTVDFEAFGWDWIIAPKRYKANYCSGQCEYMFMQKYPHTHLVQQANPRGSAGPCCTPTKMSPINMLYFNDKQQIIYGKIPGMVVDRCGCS" observed_value=0.037
